Biological target: Opioid receptor (Rattus norvegicus) (UniProt P33533+P34975+P33535)
Sequence (P33533 whole entry, looked up): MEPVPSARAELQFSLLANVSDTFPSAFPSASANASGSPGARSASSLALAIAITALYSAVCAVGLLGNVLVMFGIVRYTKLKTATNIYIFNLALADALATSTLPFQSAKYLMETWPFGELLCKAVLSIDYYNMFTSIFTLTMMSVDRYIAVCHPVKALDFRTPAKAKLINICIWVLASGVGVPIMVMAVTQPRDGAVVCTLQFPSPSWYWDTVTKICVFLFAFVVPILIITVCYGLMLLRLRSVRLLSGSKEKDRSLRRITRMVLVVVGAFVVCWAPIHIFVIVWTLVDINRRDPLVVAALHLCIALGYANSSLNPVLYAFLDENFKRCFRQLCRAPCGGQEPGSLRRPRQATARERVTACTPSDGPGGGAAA
Sequence (P33535 whole entry, looked up): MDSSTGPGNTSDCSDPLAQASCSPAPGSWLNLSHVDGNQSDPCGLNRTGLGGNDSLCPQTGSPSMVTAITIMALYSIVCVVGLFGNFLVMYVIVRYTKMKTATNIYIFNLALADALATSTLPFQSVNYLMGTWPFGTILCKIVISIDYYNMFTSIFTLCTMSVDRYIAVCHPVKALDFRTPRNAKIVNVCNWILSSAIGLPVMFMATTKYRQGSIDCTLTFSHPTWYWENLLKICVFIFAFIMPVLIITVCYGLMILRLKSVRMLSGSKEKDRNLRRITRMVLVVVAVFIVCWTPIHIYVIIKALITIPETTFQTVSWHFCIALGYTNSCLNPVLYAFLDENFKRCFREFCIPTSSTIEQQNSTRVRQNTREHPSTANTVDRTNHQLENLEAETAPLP
Sequence (P34975 whole entry, looked up): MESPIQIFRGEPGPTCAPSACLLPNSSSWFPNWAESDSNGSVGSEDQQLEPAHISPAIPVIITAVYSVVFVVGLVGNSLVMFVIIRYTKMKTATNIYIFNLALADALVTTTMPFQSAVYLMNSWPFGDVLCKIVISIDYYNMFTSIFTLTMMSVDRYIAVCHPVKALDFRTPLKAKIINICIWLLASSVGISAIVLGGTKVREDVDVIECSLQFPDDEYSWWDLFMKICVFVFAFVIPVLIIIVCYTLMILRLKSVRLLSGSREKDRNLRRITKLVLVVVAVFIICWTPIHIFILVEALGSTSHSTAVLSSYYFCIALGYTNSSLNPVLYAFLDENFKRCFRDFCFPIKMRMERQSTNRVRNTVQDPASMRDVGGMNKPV
Assay: Ratio of IC50 value in presence of NaCl to that of NaCl absence against opioid receptor.
Assay type: protein assay
Reported Ratio is given for each of the following molecules.
Write the number on its own, no unit after it.

C=C1CC2(CCC3(O)[C@H]4Cc5ccc(O)c6c5[C@@]3(CCN4C)C2O6)OC1=O (stereo in doubt; 6b)
7
Oc1ccc2c3c1OC1C4(CCC5(O)[C@@H](C2)N(CC2CC2)CC[C@]315)CO4 (stereo in doubt; 12a)
0.5

Please turn your attention to the following entry.
Record lookup: for Opioid receptor (Rattus norvegicus) (UniProt P33533+P34975+P33535), what Ratio belongs to C=C1CC2(CCC3(O)[C@H]4Cc5ccc(O)c6c5[C@@]3(CCN4C)C2O6)OC1=O (stereo in doubt; 5b) ?
7

meta.source: ChEMBL document CHEMBL1123075
